Attribution: PubChem BioAssay (NCI)

- Test system: RPMI-8226 leukemia
- Protocol Details: NCI-60 one-dose screen, 48 h (100 = growth as untreated, 0 = no growth, -100 = all killed)
- Conditions Used: 10 µM
Compounds without any hit were thinned out: in the full panel of roughly 83,000, 20% have a hit.
Reported Metric: growth (%)
Reply with just the number (in %).

[[record]]
compound = "c1ccc(CN2COc3c(ccc4c3OCN(Cc3ccccc3)C4)C2)cc1"
reported_metric = "growth"
recorded_number = 21.9

[[record]]
compound = "O=c1[nH]n(-c2ccccc2)c(=O)cc1Cl"
reported_metric = "growth"
recorded_number = 97.5

[[record]]
compound = "COc1cc(C(=O)NC(=S)Nc2ccc3ccccc3c2)cc(OC)c1OC"
reported_metric = "growth"
recorded_number = 88.9


Provide value of growth for this record tested with RPMI-8226 leukemia: CC(=O)OCC1=CC2OC(=O)C3=COC(OC4OC(CO)C(O)C(O)C4O)C1C32 (centres undefined)
114

Provide value of growth for this record tested with RPMI-8226 leukemia: Cc1ccccc1C1N=C2Oc3ccccc3C=C2C(=O)N1 (centres undefined)
95.4

Provide value of growth for this record tested with RPMI-8226 leukemia: CCCCC(CC)COC(C)=O (centres undefined)
110

Provide value of growth for this record tested with RPMI-8226 leukemia: OCC1OC(OC2C(O)C(CO)OC2(CO)OC2OC(CO)C(O)C(O)C2O)C(O)C(O)C1O (centres undefined)
97.9

Provide value of growth for this record tested with RPMI-8226 leukemia: CC(=O)OC(OC(C)=O)C1CCCO1 (centres undefined)
114

Provide value of growth for this record tested with RPMI-8226 leukemia: O=S(=O)(O)C(Nc1ccccc1)c1ccccc1 (centres undefined)
100

Provide value of growth for this record tested with RPMI-8226 leukemia: CCOC(=O)C1=C(Nc2ccc(Br)cc2)C(=O)N(CC)C1
99.7

Provide value of growth for this record tested with RPMI-8226 leukemia: CC1(O)CCCCC1O (centres undefined)
98.6

Provide value of growth for this record tested with RPMI-8226 leukemia: CC(=O)/C(Cc1ccccc1)=N/O
97.5

Provide value of growth for this record tested with RPMI-8226 leukemia: CC1SC(N)=NC1=O (centres undefined)
96.7

Provide value of growth for this record tested with RPMI-8226 leukemia: Cc1nc2c(ccc3ccccc32)s1
100

Provide value of growth for this record tested with RPMI-8226 leukemia: COC(=O)/C=C/C(=O)NC(N)=O
103
